Test: protease stability score; higher = more stable; yeast display proteolysis, trypsin and chymotrypsin;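 further: relative to predicted unfolded state with 0 unfolded-like and 1 meaning tenfold more protease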
Rule: 1 (yes) for protease stability score not less than 1, 0 (no) for anything less.

Inquiry: Can DEEEELVLRIMHELLKLVLTGDFKRLSELLDPNVRMEIVVGDKHIEEHGRERMSHWILEWLRHARVKEFRIHHLIAYDGQTDSNVRLNVRIGDKEHRFRVIVILQVIDGKIRSLTIIFE be said to have protease stability score at or above 1?
Reply text: 1 (yes)

Inquiry: Please tell me: is the sequence DEDREQYREIMSHIWHSIHTGDEETQEDMADPDARFIIGDKTFIGWKQFYEKLREIRIHIDHVHIRHIEVQGDKFRVEFQIHRTIIYNGRNLHETTEAETHLHVVNGRLHSWSFRVR at or over 1 in terms of protease stability score?
Reply text: 0 (no)

Inquiry: Check if protease stability score >= 1 (inclusive). Item: DDDQKEMERFVREFVHSFMTGDEENIRRLADPNARTYVNGKLRHGMDNFLHLWRQIRIDIQHVKVDDMHLVNGRIYIRVTVHGIFTFDGVHVRDEKDQHWELHVVDGRAKYISIHVH
Reply text: 1 (yes)

Inquiry: API: above_or_equal(metric=protease stability score, cutoff=1) for item SEEDTMAKTLTKMEIELLRTGDEDLLWRLADPNVKLHINGRDLHGRETFEEWMKRFLEQVDVLRIEHREIRTAEGHLELDMHVDSYFDGVRFTTRLIVEVIKVDGRWFIRFREEQ
Reply text: 1 (yes)

Inquiry: Given the entry DEDRESEEKAIKTWWHMVETGDEKLFKKLADPDTKMVINGVEKHGMETVHEFLNRVDHIRQFDIEDHRFYNGRLELHIRVDVEFNGRRHETERRVIASKVNGRWLLKEVIVH , answer whether its protease stability score meets or surpasses 1.
Reply text: 0 (no)

Inquiry: Given the entry DERFELFDWVVRLILHAHHTGDERIIHELADPNVRYIINGVTVHGRELMYRLAHEHLREIWVHHVQVRHFDVVGDFFRVEMEVVGLVNGVHYNEHRRLHLYVVNGRLKSSRIEIE , answer whether its protease stability score meets or surpasses 1.
Reply text: 1 (yes)

Inquiry: I'd appreciate it if you could say whether DEDHEVFKRINDLFHESLETGDERVLERLMDPNTRIEYGDKRVHGREELLRHMREMGIDHFNVEDTTVINGVAMLDVSIVVNGKVFKLEFYVNKVNGQWHLEHVEIREI has protease stability score at least equal to 1.
Reply text: 0 (no)

Inquiry: Would you say DEKEEEYKEMIRIMVEYLETGNEEDMNRLLDPHTKTEYHQGDKSDEFHGREEFMRLWQELGIDHFRVRDVDIVDGRVRIESELIVGDKRFNSYFFLIVVNGRATSASIHVE shows protease stability score at minimum 1?
Reply text: 1 (yes)

Inquiry: Please tell me: is the sequence EEEEKVEHDLLRLFAEALSTGNEHIMAELLDPHVRIIVNGKHNIGRETRKTFIEHIRVRSEDVRIRTIEVQGDKIITDSEMDIILDFDGVRTTTTVEVQIIIWKYNGKWYIKMVKFK at or over 1 in terms of protease stability score?
Reply text: 1 (yes)

Inquiry: Decide: is the reported value of protease stability score for SELEQELKHFVRLMKEIMRTGNWDLFERYADPNVRLEINGRDYIGRELASESLRHFVEEWGLDRVDVRVEHSSFQGDKAHSKINTDFNGQERTVHYDVLKVDGRWIVQRVRIE equal to or greater than 1?
Reply text: 1 (yes)

Inquiry: Test whether the sequence DEEHKFQHDISIFFMKLIETGDEDTLIDMADPNARSEINGKEVHGMEDAYKWWIDFLRQMGIKHLHVETFHVVNGQTKVHSRVHVGDKEFEVEIRLIIINGRLHEIEIIVRTR records protease stability score of 1 or higher.
Reply text: 1 (yes)

Inquiry: hey, is protease stability score for this one >= 1? SEDHEISRRMLEMVLDSFDTGDEHIYKDLADPHAKIEVNGKDIHGWDTWASEMVERTERVPGVRKEIHIRDIKSQGDKIEIRGEVIIDFNGKTIRYRVLFVIEKINGRWFIKSEHIK
Reply text: 1 (yes)

Inquiry: Reported protease stability score at or above 1? SDEEHIVQVALKNYIKAVMTGDEHLFNELMDPNTRNDINGVIYHGMEEWVKSVEELGIERFTIHEVYEHDFRVYNGQVDIHVRVDREVNGRRINDEVEIVAYKVNGRWQLRSLIFR
Reply text: 1 (yes)

Inquiry: Threshold query (protease stability score >= 1) on SEEEKHLRELSEHFIKLFLTGNEEELVNNADPHVQLHIDINGKKYHYHGREEFRKWAEERSEKIKNAKIILDHVEIQGEKLIIDTTWHFDGRNFRSKIKIKVFDGVLKEIHIEIR
Reply text: 1 (yes)

Inquiry: Does the reported protease stability score for DELTREMDRVHEELVRSLTTGDEDRLASMMDPNARLRIDGVNFIGRDKIREFWHQIDHSSMHLHHIHVYGDKIRLEGELILNFNGVEHNHETLMIIKKVDGKWVIESIHLK fall at or above the 1 mark?
Reply text: 1 (yes)

Inquiry: Could you verify whether the entry SELEHQVRKFVEIYVEAMRTGDEDVLRELADPHVRVVIGDKELHGWEEVVHKLRELRLEEIRVDRVRVIGDYVYVDGHSVWTYGDKRIEQRDIFTIRKVNGRWVLHDVILR shows protease stability score of no less than 1?
Reply text: 1 (yes)

Inquiry: Has DEEEKHWTTLIEIHFKDLLTGDEDSNLHLADPDYRLRMHFDGRELIFIGREEIHKFWHETVHKFKNMRIEINDSDIQGDKFDVDIAIRIDGVEIRYRLIIILFNGRTHRQEVHNI a recorded protease stability score greater than or equal to 1?
Reply text: 1 (yes)

Inquiry: Hi team, for SETEHYSQKLLDLIVKAMRTGDEEMFERLLDPNTRELVDGQELHGREEWHHLWHRIDHLRIDHSEISHVNPIGEFIVVHMRVRMTLHINGKIHHYETEVIIIILKIDGRWLMHEVRFH , is the recorded protease stability score at or above 1?
Reply text: 0 (no)

Inquiry: Has SEEEERLRRFFEEFIKWHVTGDEEHLERLMDPNAKFIVNGVESHGWENTSRHLKELRIHELNIRRVEIVNGRIHISGLAKGEFNGRHRETTVHIHIVVIDGRVKEMSIEVR a recorded protease stability score greater than or equal to 1?
Reply text: 1 (yes)

Inquiry: Please check the record TEDEKLSEDMTQHFIELLFTGDFDKISELADPNVRIHAENRTLVGRESFKRLMKKEIEFFKGARFHIEDLHIYDGRVDIHEIVSYGEFVIRRTIHSHKINGKWLETEVRLG and state if its protease stability score is at or above 1.
Reply text: 0 (no)

Inquiry: Assess whether reported protease stability score for DEETRDFDVAFMYFILFEKTGDERELLELLDPDARMVVGDKRRVGRESVLHFMREHLRTLGFKHVEDIELHDFKVYDGRIELDIRVRGRVNGKTHTLTYLMIAHKVDGRWFIHSLEVR sits at 1 or higher.
Reply text: 1 (yes)

Inquiry: Textbook exercise: given the entry DEHEELIMEFLRRLLEWHLTGDEEYISRNFDPNTQFDILIGDKRYHIHGREEIHEWLHEFLRELRVHIIVHEMRAQGDKAHNRGTLNLTYGDKRRTVDVHIFIVVVNGRYKKIIVQVK , state whether its protease stability score is greater than or equal to 1.
Reply text: 1 (yes)

Source of measurements: the NTF2 design screens of Basanta et al. (2020)
